ASSAY NAME: Rat pharmacokinetics
Format: in vivo, Rat (male, SD)
APPLIED CONDITIONS: male, Sprague Dawley, whole blood, po, 100 mg/kg

- GIVEN SMILES: "C[C@H]1CN(c2n[nH]c3nc(N[C@H]4CC[C@H](NS(=O)(=O)CCC(F)(F)F)CC4)ncc23)CCO1"
  Cmax (ng/mL): 8470

====

ASSAY NAME: Mouse pharmacokinetics
Type: in vivo, Mouse (male, CD1)
APPLIED CONDITIONS: male, CD1, mouse, whole blood, po, 10 mg/kg

- GIVEN SMILES: "C[C@H]1CN(c2n[nH]c3nc(N[C@H]4CC[C@H](NS(=O)(=O)CCC(F)(F)F)CC4)ncc23)CCO1"
  Tmax: "2 h"
